Reference source: PubChem BioAssay AID720580

# Test Method Notes: qHTS for Stage-Specific Inhibitors of Vaccinia Orthopoxvirus: Venus Reporter Primary qHTS; further: nearly all actives have a fitted effect of over 30% in size; further: potency means the concentration at half of the fitted maximal effect
# Assay Setup: Vaccinia virus Venus reporter expression, fluorescence; series mostly up to 36.5 µM
Hit rate of the full screen: of about 330,000 compounds, about 1,500 (0.45%) were called active. Roughly 6% stayed inconclusive and do not appear here. Shown is part of a subset that was picked to be rich in actives.

Compound	Potency
COc1ccc(-c2coc3c(C(=O)NC(C)C)cccc23)c(C)c1	inactive
CCCCCNC(=O)Cc1ccc(OC)cc1	inactive
CCCCNC(=O)C[C@@H]1C[C@@]2(C(=O)OC)CC(C)(C)CC=C2N(Cc2ccco2)C1=O	inactive
CN(C)C(=O)c1coc2nc3ccccc3nc12	inactive
C=CCC[C@H](CCCCC)OC(=O)/C=C/[C@H](O)[C@@H](O)C[C@@H](O)CC=C	inactive
CC(=O)OC1C2(CC3N4C(=O)C5(CO)SSC4(CC31O)C(=O)N5C)OC(C)C(C)(C)C2=O (stereo not given)	3.16 µM (active)
CC(C)C[C@@H]1Cc2[nH][nH]c(=O)c2[C@H](CCc2ccccc2)O1	inactive
COc1ccc(S(=O)(=O)N[C@@H]2C=C[C@@H](CC(=O)N3CCc4ccccc4C3)O[C@@H]2CO)cc1	inactive
CNC(=O)c1cccc2nc3ccccc3nc12	6.31 µM (active)
CCC(C(=O)NCc1ccccc1)n1c(Cc2cc(F)cc(F)c2)nc2ccccc21 (stereo not given)	inactive

====

# Test Method Notes: qHTS for Stage-Specific Inhibitors of Vaccinia Orthopoxvirus: Venus Reporter Primary qHTS; further: nearly all actives have a fitted effect of over 30% in size; further: potency means the concentration at half of the fitted maximal effect
# Assay Setup: Vaccinia virus Venus reporter expression, fluorescence; series mostly up to 36.5 µM
Screen size: about 330,000 compounds; about 1,500 (0.45%) were called active. Another 6% or so got no clear call; they are omitted. Only a selection was taken, and actives are over-represented in it overall.

Compound	Potency
CN(C(=N)N)c1ccc(/C=C2\C=Cc3ccccc32)cc1	inactive
COc1ccc(-c2c(C)cc3oc(=O)cc(-c4ccccc4)c3c2C)cc1OC	inactive
Fc1ccc(N2CCN(Cc3ccc4c(c3)OCO4)CC2)cc1	inactive
CC(C)(C)c1ccc(C(=O)C[n+]2cccc3cc(Cl)ccc32)cc1	inactive
COc1ccc(NC(=O)C2Cc3c(-c4ccc5c(c4)OCO5)ccnc3O2)cn1 (stereo not given)	inactive
CCCCC(CCCC)c1ccc(C=Nc2ccc(/C=C/c3ccnc4ccccc34)cc2)cc1	inactive
COc1ccc(-c2cc3nc(NCCOc4ccccc4)ccn3n2)cc1	inactive
CC(CCC(=O)O)C1CCC2C3C(O)C[C@@H]4CC(O)CC[C@@]4(C)C3CC[C@@]12C (stereo not given in full)	inactive
CC(=O)Nc1ccc(-c2csc(NC=C3C(=O)OC(C)(C)OC3=O)n2)cc1	4.47 µM (active)
O=C1NC[C@H](Cc2ccc(O)cc2)N(C[C@H]2CCCN2C[C@H](Cc2ccccc2)N2C[C@H](Cc3ccccc3)N(CCc3ccccc3)C(=O)C2=O)C1=O	inactive
COC(=O)[C@]12CCCCC=C1N(Cc1ccco1)C(=O)[C@H](CC(=O)NCC1CCCCC1)C2	inactive
COc1cc(OC)c2c(-c3cccc(-c4cccc(N)c4)c3)cc(=O)oc2c1	12.6 µM (active)
CCOC(=O)[C@]12CCC=C1N(CCC1=CCCCC1)C(=O)[C@H](CC(=O)NCc1ccc(C)o1)C2	inactive
O=C1Nc2ccccc2NC(c2ccc3c(c2)OCO3)=C1N(Cc1ccc(F)cc1)C(=O)c1ccco1	inactive
CCOCCC(=O)Nc1ccc2c(c1)c(=O)n(C)n2-c1ccc2ccccc2c1	inactive
CN(Cc1cn(Cc2ccc(C(F)(F)F)cc2)nn1)C1CN(Cc2cn(Cc3ccc(C(F)(F)F)cc3)nn2)S(=O)(=O)C1 (stereo not given)	inactive
Cc1cccc(C)c1NC(=O)CN1CCN(c2ccc(F)cc2)CC1	inactive
COc1cc2c(cc1OC)CN(CC(=O)Nc1ccc(F)cc1)CC2	inactive
C=CCC[C@H](Cc1ccc(F)cc1)C(=O)OC[C@@H](NC(=O)[C@@H](CC=C)CC(=O)N[C@H](CO)Cc1ccccc1)C(C)(C)C	11.2 µM (active)
COC(=O)c1ccc2nc(-c3ccc(F)cc3)c(Cc3ccc(C)cc3)n2c1	inactive
C[C@]12CC[C@H](O)C[C@H]1CC[C@@H]1C2CC[C@]2(C)[C@@H](C3=CC(=O)OC3)[C@@H](O)C[C@]12O (stereo not given in full)	3.16 µM (active)
C/C(CC1CC(C)(C)OC1=O)=N/Nc1nc(-c2ccccc2)cs1 (stereo not given)	inactive
COC(=O)Cc1ccc(OC2(C)CCN(Cc3ccc4c(c3)OCCO4)C2)cc1 (stereo not given)	inactive
CCOC(=O)N1C(=O)C[C@](Sc2ccc(C)cc2)(C(=O)OC)[C@H]1c1ccccc1	inactive
CCC(C)CN1C(=O)CSCC1(C)C(=O)NCc1ccccc1 (stereo not given)	inactive
Nc1nc2c(Br)ccc(Br)c2cc1C(=O)NCCc1ccccc1	inactive
COc1ccc(CN(Cc2ccccc2)C(=O)c2ccc(O)cc2)cc1COc1ccc(NC(C)=O)cc1	inactive
CNc1cncc(-c2ccc(NS(C)(=O)=O)cc2)n1	inactive
CCCc1ccc(C(O)c2ncc(-c3cccc(OC)c3)[nH]2)cc1 (stereo not given)	inactive
COc1ccc(C(C)(O)c2nc(-c3ccc(C)c(C)c3)cs2)cc1 (stereo not given)	inactive
Cc1cc2nc(-c3ccc(Cl)cc3)c(Cc3cccc(F)c3)n2c(C)c1Br	inactive
CSc1nc(Nc2ccc(F)cc2)cc(-c2ccccc2)n1	inactive
COc1cccc(NC(=O)C2(C)CCN2Cc2ccccc2Cl)c1 (stereo not given)	inactive
O=C(NCc1ccccc1)C(c1ccc(F)cc1)N1CCN(C(=O)C2CCCO2)CC1 (stereo not given)	inactive
COc1ccc(C2=Nc3ccccc3NC(=O)C2N(C(=O)c2cc3ccccc3[nH]2)c2ccccc2)cc1 (stereo not given)	inactive
CC(C)n1cnc2c(Nc3cccc(Cl)c3)nc(N(CCO)CCCO)nc21	11.2 µM (active)
CS(=O)c1ccc(/C=C2\C=Cc3ccccc32)cc1 (stereo not given)	inactive
CCc1nc2c(OCc3ccc(F)c(F)c3)cccn2c1N(C)C(=O)c1ccco1	inactive
CC[C@H]1CN2CCc3cc(OC)c(OC)cc3[C@@H]2C[C@@H]1C[C@H]1NCCc2cc(OC)c(OC)cc21	0.562 µM (active)
CC1(C(=O)O)CCCN(C(=O)/C=C/c2ccccc2)C1 (stereo not given)	inactive
